The values you see were collected from patent US20220048967A1.

system tested: human GLP-1 receptor (GLP-1R) (human, UniProt P43220 24-463)
assay overview: cell-based or functional assay
Numbered stars: 1 amine (or outer) side, 2 acyl side, 3 side chain; on linkers, the order of the positions; unused ones are H or OH. Square brackets hold non-standard residues; d marks the D form. Side chains are listed from the residue outwards. Ends that are not written are not given here. * marks the point of attachment. C20 diacid = O=C(O)CCCCCCCCCCCCCCCCCCC(=O)*; αMePhe(2-F) = C[C@](N)(Cc1ccccc1F)C(=O)O; γGlu = O=C(O)[C@H](CCC(=O)[*:2])N[*:1]; αMeF = C[C@](N)(Cc1ccccc1)C(=O)O; AEEA = NCCOCCOCC(=O)O; Aib = CC(C)(N)C(=O)O
Each entry below lists one item and its recorded hGLP1R cAMP EC50 ratio value.
Give the figure only, with no unit attached.

- binder: "Y[Aib]EGT[αMeF]TSDYSIXLDKK([AEEA-AEEA-γGlu-C20 diacid])AQ[Aib]EFI[dE]YLIEGGPSSG-NH2 (not fully specified (residue 13); printed as Y-Aib-EGT-αMeF-TSDYSI-αMeF-LDKK((2-[2-(2-Amino-ethoxy)-ethoxy]-acetyl)2-(γ-Glu)-CO-(CH2)18-CO2H)AQ-Aib-EFI-(D-Glu)-YLIEGGPSSG-NH2) [Example 228]"
  observed property: "hGLP1R cAMP EC50 ratio"
  numeric result: 1.1
- binder: "Y[Aib]EGT[αMePhe(2-F)]TSDYSIXLDEKAQ[Aib]EFIAYLIEGGPSSGAPPPS-NH2 (not fully specified (residues 13, 17); printed as Y-Aib-EGT-αMeF(2F)-TSDYSI-αMeF-LDEK((2-[2-(2-Amino-ethoxy)-ethoxy]-acetyl)2-(γ-Glu)-CO-(CH2)18-CO2H)AQ-Aib-EFIAYLIEGGPSSGAPPPS-NH2) [Example 148]"
  observed property: "hGLP1R cAMP EC50 ratio"
  numeric result: 0.859

Next binder, please.
hGLP1R cAMP EC50 ratio for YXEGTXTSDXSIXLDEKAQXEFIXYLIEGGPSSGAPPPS (Y-Aib-EGT-αMeF(2F)-TSD-4Pal-SI-αMeF-LDEK((2-[2-(2-Amino-ethoxy)-ethoxy]-acetyl)2-(γ-Glu)-CO-(CH2)18-CO2H)AQ-Aib-EFI-(D-Glu)-YLIEGGPSSGAPPPS-NH2) [Example 182] ?
0.873
